Reference source: the Human Domainome abundance scans (Beltran et al. 2025)

B1: Transcription intermediary factor 1-beta, residues 620 to 671; numbered along this chain, Q13263 (parent)
chain: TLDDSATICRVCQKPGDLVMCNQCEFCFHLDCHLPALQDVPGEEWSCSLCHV

- Variants of: B1
- assay-summary: abundance fitness (aPCA) (normalised: wild type 0, dead -1); higher = more abundant; growth selection in yeast, the domain comes from the species named
- run-parameters: Homo sapiens
Response field class: enum, chosen by comparing abundance fitness against c1 = under -0.4, c2 = from -0.4 up to -0.2, c3 = -0.2 and over

Determine which band this variant sits in: Q23T
c3

The entry to classify is D3K ; which class holds it?
c3

Band for the recorded abundance fitness of A36K ?
c3

Exam item: assign E25L to the correct category.
c3

Place this variant in its band: L30A
c3

State the class of the variant shown: C50D
c3

Could you place H33Y in its proper category? Many thanks.
c2

Which abundance fitness band matches M20K ?
c2

Which category fits this record: L37E
c1

In plain terms, what class is E44K ?
c3

Please let me know in which category the item C47T belongs.
c1

Hello team, could you let me know which band the following variant falls into: D39K
c2

Where would C50G land among the classes by reported abundance fitness?
c2

Tag the class for V19L
c3

Bin this entry: V19I
c3

Bin this entry: H29K
c1

Lab note: which band did A6M land in?
c3

Please let me know in which category the item S48Q belongs.
c2

Category of W45A :
c3

Any idea which band C24I is in?
c1

Dear colleague, I would appreciate it if you could identify the bin for A36Y and reply at your convenience.
c1

Form field 'band' for C32M
c1

Kindly state the category for this variant: L18C
c2

Which class does H51K fall in?
c1

State the class of the variant shown: E25M
c2

Categorize the following entry: G16M
c1

Consider C9R . To which abundance fitness class does it belong?
c1

Pick a category. Item: Q38H
c2

Place this variant in its band: E43S
c3

// bin(item) where item = L18W
c1

Band of L34F ?
c3

Note: place this variant into its band. Item: P41R
c2

Which class does L2H fall in?
c1

Exercise: read the entry M20S and state which class it falls under.
c3

Each variant maps to one class by abundance fitness. Which class for E44S ?
c3

Consider A36C . To which abundance fitness class does it belong?
c1

Which abundance fitness category applies to L37P here?
c3

Assign a bin to C21V
c1

Consider A36Q . To which abundance fitness class does it belong?
c1

Please let me know in which category the item G16S belongs.
c3
